Molecular target: Gamma-aminobutyric acid type B receptor subunit 1/2 (UniProt Q9Z0U4+O88871)
Sequence (Q9Z0U4 whole entry): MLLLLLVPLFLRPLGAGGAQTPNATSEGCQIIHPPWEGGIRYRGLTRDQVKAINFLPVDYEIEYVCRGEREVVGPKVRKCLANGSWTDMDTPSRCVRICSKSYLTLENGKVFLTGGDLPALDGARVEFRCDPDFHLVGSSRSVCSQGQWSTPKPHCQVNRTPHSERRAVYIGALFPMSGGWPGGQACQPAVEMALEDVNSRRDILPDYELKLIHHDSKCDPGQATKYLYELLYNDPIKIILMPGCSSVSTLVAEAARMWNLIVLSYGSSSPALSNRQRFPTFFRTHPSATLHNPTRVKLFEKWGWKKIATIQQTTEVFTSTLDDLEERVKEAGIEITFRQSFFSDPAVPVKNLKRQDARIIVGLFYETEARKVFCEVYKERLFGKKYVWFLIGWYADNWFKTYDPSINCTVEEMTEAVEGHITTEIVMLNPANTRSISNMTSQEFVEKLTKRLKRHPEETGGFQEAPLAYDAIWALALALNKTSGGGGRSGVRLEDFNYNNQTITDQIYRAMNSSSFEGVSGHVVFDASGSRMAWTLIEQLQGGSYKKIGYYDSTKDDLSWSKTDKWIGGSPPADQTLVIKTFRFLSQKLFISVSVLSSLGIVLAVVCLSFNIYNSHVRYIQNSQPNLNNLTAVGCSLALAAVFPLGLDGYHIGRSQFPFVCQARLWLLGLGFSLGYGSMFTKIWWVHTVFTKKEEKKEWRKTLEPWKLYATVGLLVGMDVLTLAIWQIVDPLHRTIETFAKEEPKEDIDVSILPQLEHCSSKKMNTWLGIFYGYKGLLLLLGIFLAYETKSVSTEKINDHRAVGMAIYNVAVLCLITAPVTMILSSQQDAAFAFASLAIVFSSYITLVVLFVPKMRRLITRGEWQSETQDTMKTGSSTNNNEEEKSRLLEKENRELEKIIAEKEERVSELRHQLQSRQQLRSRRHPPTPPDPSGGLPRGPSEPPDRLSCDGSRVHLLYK
Sequence (O88871 whole entry): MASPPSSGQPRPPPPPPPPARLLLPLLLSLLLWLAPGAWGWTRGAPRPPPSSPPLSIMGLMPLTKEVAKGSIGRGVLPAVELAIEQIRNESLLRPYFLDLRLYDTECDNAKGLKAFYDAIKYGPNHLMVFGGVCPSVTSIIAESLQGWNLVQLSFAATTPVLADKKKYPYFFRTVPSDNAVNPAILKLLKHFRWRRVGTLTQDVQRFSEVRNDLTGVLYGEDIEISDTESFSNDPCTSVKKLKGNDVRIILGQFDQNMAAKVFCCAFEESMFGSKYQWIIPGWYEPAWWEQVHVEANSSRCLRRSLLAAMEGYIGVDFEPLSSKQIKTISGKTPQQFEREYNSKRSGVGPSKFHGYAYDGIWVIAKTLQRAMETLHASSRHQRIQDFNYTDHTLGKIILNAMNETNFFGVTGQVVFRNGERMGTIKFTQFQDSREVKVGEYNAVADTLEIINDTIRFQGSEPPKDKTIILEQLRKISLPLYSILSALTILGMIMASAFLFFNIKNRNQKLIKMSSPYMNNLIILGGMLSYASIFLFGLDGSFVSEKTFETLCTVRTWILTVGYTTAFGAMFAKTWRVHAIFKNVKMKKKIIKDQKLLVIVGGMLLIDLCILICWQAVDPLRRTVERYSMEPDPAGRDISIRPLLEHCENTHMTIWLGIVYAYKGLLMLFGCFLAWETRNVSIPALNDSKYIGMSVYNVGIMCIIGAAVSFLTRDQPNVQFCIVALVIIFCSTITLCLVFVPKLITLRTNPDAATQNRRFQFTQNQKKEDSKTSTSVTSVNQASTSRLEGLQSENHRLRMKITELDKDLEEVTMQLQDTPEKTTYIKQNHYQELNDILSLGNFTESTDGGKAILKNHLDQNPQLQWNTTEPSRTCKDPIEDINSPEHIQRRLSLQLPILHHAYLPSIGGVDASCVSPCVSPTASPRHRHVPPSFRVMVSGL
Assay: Displacement of [3H]baclofen from Gamma-aminobutyric acid type B receptor in rat brain membranes
quantity measured: IC50

Kindly note: Gamma-aminobutyric acid type B receptor subunit 1/2 (UniProt Q9Z0U4+O88871), NCC1CC(=O)CC(=O)C1 , IC50 value reported: > 100 µM
